Assay: excess molar enthalpy (molar enthalpy of mixing); xn = mol fraction of the nth substance listed
Details: 323.15 K; 101 kPa; Liquid; Flow calorimetry; x2 = 0.702
Each entry below carries its recorded excess molar enthalpy.
Reply with just the number (in kcal/mol).

Worked cases, answers included:
{"compound": "CC(C)=O [acetone] + CCCO", "excess molar enthalpy / kcal/mol": 0.32}
{"compound": "CCCCCCC [heptane] + CCCO", "excess molar enthalpy / kcal/mol": 0.195}
{"compound": "CC(C)=O [acetone] + CCO", "excess molar enthalpy / kcal/mol": 0.22}

Next compound, excess molar enthalpy to be filled in.
Specify measured excess molar enthalpy for CCCCCCCC [octane] + CCCO .
0.242

----------
Conditions: 293.15 K; 101.33 kPa; Liquid; Vibrating tube method
readout_type: mass density (kg/m3)
Your answer should be a plain number; it is taken to be in kg/m3.

Consider the worked cases shown below.
{"record_smiles": "CCCCCCCC", "unit": "kg/m3", "quantitative_readout": 702.87}
{"record_smiles": "CC(C)=O", "unit": "kg/m3", "quantitative_readout": 790.31}
{"record_smiles": "CCO", "unit": "kg/m3", "quantitative_readout": 789.29}
{"record_smiles": "CCCCCCC", "unit": "kg/m3", "quantitative_readout": 683.91}
{"record_smiles": "CCCO", "unit": "kg/m3", "quantitative_readout": 803.63}

Shift focus to the following entry.
Recall and state the measured mass density for C1CCCCC1 .
778.56

----------
Known excess molar enthalpy of a selection of compounds
Experiment: excess molar enthalpy (molar enthalpy of mixing); xn = mol fraction of the nth substance listed
Conditions: 323.15 K; 101 kPa; Liquid; Flow calorimetry; x2 = 0.551
The response must be a number in kcal/mol with no trailing unit.

{"compound": "CC(C)=O [acetone] + CCCO", "excess molar enthalpy (kcal/mol)": 0.361}

Report excess molar enthalpy for C1CCCCC1 [cyclohexane] + CCO
0.209

----------
# Lookup of reported excess molar enthalpy keyed by entry
Assay: excess molar enthalpy (molar enthalpy of mixing); xn = mol fraction of the nth substance listed
Conditions: 323.15 K; 101 kPa; Liquid; Flow calorimetry; x2 = 0.452
Just the number in kJ/mol, nothing appended.

Consider the reported excess molar enthalpy for these compounds:
{"compound": "C1CCCCC1 [cyclohexane] + CCO", "unit": "kJ/mol", "excess molar enthalpy": 0.933}
{"compound": "CC(C)=O [acetone] + CCO", "unit": "kJ/mol", "excess molar enthalpy": 1.14}
{"compound": "CCCCCCCC [octane] + CCO", "unit": "kJ/mol", "excess molar enthalpy": 1.41}

As a next step, examine the compound that follows.
Give the reported excess molar enthalpy for this compound. CCCCCCCC [octane] + CCCO
1.47

----------
Assay: excess molar enthalpy (molar enthalpy of mixing); xn = mol fraction of the nth substance listed
Details: 323.15 K; 101 kPa; Liquid; Flow calorimetry; x2 = 0.752
Let's look at some molecules and their measured excess molar enthalpy.
Output spec: scalar in kcal/mol, unitless text.

Supply reported excess molar enthalpy belonging to this molecule: CCCCCCCC [octane] + CCCO
0.214

----------
Experiment: excess molar enthalpy (molar enthalpy of mixing); xn = mol fraction of the nth substance listed
Conditions: 323.15 K; 101 kPa; Liquid; Flow calorimetry; x2 = 0.901
Each entry below carries its reported excess molar enthalpy.
Use kcal/mol as the unit, but write only the number.

{"molecule": "CC(C)=O [acetone] + CCO", "quantitative_readout": 0.0937}

Next item in the queue.
Give the reported value of excess molar enthalpy for this record: CCCCCCCC [octane] + CCO
0.121

----------
Assay: excess molar enthalpy (molar enthalpy of mixing); xn = mol fraction of the nth substance listed
Conditions: 323.15 K; 101 kPa; Liquid; Flow calorimetry; x2 = 0.551
excess molar enthalpy listing for selected compounds.
The response must be a number in kcal/mol with no trailing unit.

These recorded examples may help you get a feel for the data.
{"compound": "CCCCCCC [heptane] + CCCO", "excess molar enthalpy / kcal/mol": 0.247}
{"compound": "CCCCCCCC [octane] + CCO", "excess molar enthalpy / kcal/mol": 0.307}

Here is the next item to consider.
Name the recorded excess molar enthalpy of the item CC(C)=O [acetone] + CCO in your answer.
0.265

----------
Assay: excess molar enthalpy (molar enthalpy of mixing); xn = mol fraction of the nth substance listed
Conditions: 323.15 K; 101 kPa; Liquid; Flow calorimetry; x2 = 0.752
readout_type: excess molar enthalpy (kcal/mol)
# value in kcal/mol; strip the unit string

{"compound": "CC(C)=O [acetone] + CCO", "excess molar enthalpy (kcal/mol)": 0.196}

Note excess molar enthalpy for the compound shown: CC(C)=O [acetone] + CCCO
0.295

Provide one value: measured excess molar enthalpy of CCCCCCCC [octane] + CCO
0.217

----------
Experiment: excess molar enthalpy (molar enthalpy of mixing); xn = mol fraction of the nth substance listed
Settings: 323.15 K; 101 kPa; Liquid; Flow calorimetry; x2 = 0.901
readout_type: excess molar enthalpy (kcal/mol)
Provide the reading as a plain figure in kcal/mol.

Sample records with excess molar enthalpy:
{"compound": "CCCCCCC [heptane] + CCCO", "unit": "kcal/mol", "excess molar enthalpy": 0.0987}
{"compound": "CCCCCCCC [octane] + CCCO", "unit": "kcal/mol", "excess molar enthalpy": 0.106}

Look up and state reported excess molar enthalpy for C1CCCCC1 [cyclohexane] + CCO
0.0722

Identify measured excess molar enthalpy associated with CC(C)=O [acetone] + CCCO
0.168
